Entry source: patent US20240209080A1

Target: human FOLR1 on cells (Hela, RPTEC/TERT1, OVCAR3, OV90, IGROV-1, JEG-3, KB, NCI-H441) (human, UniProt P15328 25-234)
Sequence (P15328 25-234): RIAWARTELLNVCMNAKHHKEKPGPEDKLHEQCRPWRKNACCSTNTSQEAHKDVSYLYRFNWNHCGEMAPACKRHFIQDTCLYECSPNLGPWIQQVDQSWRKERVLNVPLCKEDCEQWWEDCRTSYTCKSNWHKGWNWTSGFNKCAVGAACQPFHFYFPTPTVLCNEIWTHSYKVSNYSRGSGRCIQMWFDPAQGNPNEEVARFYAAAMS
Experiment: cell-based or functional assay
measured-parameter: Internalization ratio (%), Hela, 4 h
# unit: % | format: bare number

Input line: Recorded Internalization ratio (%), Hela, 4 h for F8-ADC (antibody F8 conjugated to mc-VC-PAB-MMAE) (antibody, V domains shown, mc-VC-PAB-MMAE on cysteine thiols after TCEP reduction (positions not stated; DAR within 3~4), Antibody-drug conjugate; also called F8 immunoconjugate) VH: EVQLLESGGGVVQHGRSLRLSCAASGFTFSSYGMHWVRQAPGKGLEWVAVISYDGSNKYYADSVKGRFTISRDNSKNTLYLQMNSLRAEDTAVYYCARPRAYYGAYGSSFDYWGQGTQVTVSS VL: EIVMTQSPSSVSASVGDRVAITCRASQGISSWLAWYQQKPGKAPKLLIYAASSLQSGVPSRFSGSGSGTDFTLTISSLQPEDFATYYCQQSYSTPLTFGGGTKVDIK , please?
Output line: 45.7
